Test system: adipocytes
method-summary: Triglyceride accumulation assay in adipocytes
Assay type: cell-based, human
experimental-setup: Table 18; differentiating adipocytes; control = treatment with ISIS 342673
In the oligonucleotide strings, read from the 5' end, every base follows the letter of its sugar. An asterisk marks phosphorothioate; unmarked linkages are phosphodiester. Other units and linkages are bracketed, terminal groups are in braces. A string of capitals states the bases alone. e = 2'-O-(2-methoxyethyl) (MOE); [5mC] = 5-methylcytosine; d = 2'-deoxy (DNA)
observation-type: TG (triglyceride accumulation)

>>> recorded_value("328104 (antisense eT*eA*eT*eG*eA*eT*eA*eG*e[5mC]*eT*eT*e[5mC]*e[5mC]*e[5mC]*e[5mC]*eA*eT*eG*eT*eA*eA) [compound 328104]")
"122.6 percentage of control"
>>> recorded_value("328108 (antisense eA*eA*eA*e[5mC]*eT*eT*eG*eT*eT*eA*eA*eT*eT*eG*eA*e[5mC]*eT*eG*eT*e[5mC]*eA) [compound 328108]")
"89.6 percentage of control"
>>> recorded_value("328115 (antisense eA*eG*eA*eA*eG*eG*eT*eG*eG*eG*eG*eA*eG*e[5mC]*eA*eG*e[5mC]*eG*eT*e[5mC]*eA) [compound 328115]")
"108.7 percentage of control"
>>> recorded_value("328102 (antisense eG*e[5mC]*e[5mC]*e[5mC]*e[5mC]*eA*eT*eT*eA*eA*eT*eA*eT*eT*eT*eT*eA*eA*e[5mC]*e[5mC]*eA) [compound 328102]")
"95.9 percentage of control"
>>> recorded_value("328099 (antisense eA*eA*eG*eA*eA*e[5mC]*eA*eT*eT*eA*eA*eG*e[5mC]*eA*eT*e[5mC]*eT*eG*eA*e[5mC]*eA) [compound 328099]")
"93.9 percentage of control"
>>> recorded_value("328106 (antisense eA*eT*eT*eG*eA*eT*eG*e[5mC]*eG*e[5mC]*e[5mC]*eA*eT*eT*eT*eG*eG*e[5mC]*e[5mC]*eT*eA) [compound 328106]")
"90.5 percentage of control"
>>> recorded_value("341806 (antisense GCCAATATTTCTGTGCTGCTA; all 2'-MOE, all phosphorothioate, methylation of C not given here) [compound 341806]")
"83.2 percentage of control"
>>> recorded_value("328113 (antisense e[5mC]*eA*eA*eA*eA*eA*eT*eT*eA*eT*e[5mC]*eA*eG*e[5mC]*e[5mC]*eA*eG*eT*eT*eT*eA) [compound 328113]")
"80.8 percentage of control"
>>> recorded_value("342673 (antisense eA*eG*eA*e[5mC]*eT*eA*eG*e[5mC]*eG*eG*eT*eA*eT*e[5mC]*eT*eT*eT*eA*eT*e[5mC]*e[5mC]*e[5mC]) [compound 342673]")
"100 percentage of control"
>>> recorded_value("328101 (antisense eA*eA*eA*e[5mC]*e[5mC]*e[5mC]*e[5mC]*eT*eA*eT*e[5mC]*eA*e[5mC]*eG*eA*eT*eT*eA*eG*e[5mC]*eA) [compound 328101]")
"108.6 percentage of control"
>>> recorded_value("105990 (antisense AGCAAAAGATCAATCCGTTA; sugars from the 5' end e5 d10 e5, backbone and methylation of C not given here) [compound 105990]")
"32.8 percentage of control"

---

Tested on: T47D cells
method-summary: Caspase-3 activity assay (apoptosis) in T47D cells
experimental-setup: caspase assay, 200 nM; conclusion from Tables 9-12
In the oligonucleotide strings, read from the 5' end, every base follows the letter of its sugar. An asterisk marks phosphorothioate; unmarked linkages are phosphodiester. Other units and linkages are bracketed, terminal groups are in braces. A string of capitals states the bases alone. e = 2'-O-(2-methoxyethyl) (MOE); [5mC] = 5-methylcytosine; d = 2'-deoxy (DNA)
observation-type: apoptosis in T47D cells

>>> recorded_value("ACTGATTCAAGAGCTTTGTA (antisense; same sequence listed as MOE 5-10-5 gapmer and as uniform MOE, further chemistry not given here) [ISIS 328648]")
"induce apoptosis"
>>> recorded_value("SEQ ID NO 519: gapmer of Tables 9-12 having this SEQ ID NO (antisense eG*eG*eG*e[5mC]*e[5mC]*dT*dA*dT*d[5mC]*d[5mC]*dA*dA*dA*dG*dT*eG*eA*e[5mC]*eA*eG)")
"induce apoptosis"
>>> recorded_value("TGCTGACTGCTCGCCCTTGC (antisense; same sequence listed as MOE 5-10-5 gapmer and as uniform MOE, further chemistry not given here) [ISIS 328641]")
"induce apoptosis"

---

System: PPARγ
method-summary: PPARγ mRNA expression in adipocytes (real-time PCR)
Assay type: cell-based, human
experimental-setup: differentiating adipocytes transfected with oligomeric compound
Experimental: Expression of the four hallmark genes, HSL, aP2, Glut4, and PPARγ, is also measured in adipocytes transfected with oligomeric compounds of the invention. Cells are lysed on day nine post-transfection and total RNA is harvested. The amount of total RNA in each sample is determined using a Ribogreen Assay (Invitrogen Life Technologies, Carlsbad, Calif.). […]
In the oligonucleotide strings, read from the 5' end, every base follows the letter of its sugar. An asterisk marks phosphorothioate; unmarked linkages are phosphodiester. Other units and linkages are bracketed, terminal groups are in braces. A string of capitals states the bases alone. e = 2'-O-(2-methoxyethyl) (MOE); [5mC] = 5-methylcytosine
observation-type: PPAR gamma mRNA

>>> recorded_value("327928 (antisense eA*eA*e[5mC]*e[5mC]*eG*eA*eT*eT*eT*e[5mC]*eA*eG*eA*eT*eG*eG*eT*eG*e[5mC]*eT*eA*eG) [compound 327928]")
"57 percentage of untreated control (UTC)"
>>> recorded_value("328112 (antisense eA*eT*e[5mC]*eA*eT*eT*eA*e[5mC]*eT*eG*eG*eA*eT*eT*eG*e[5mC]*eT*eG*eT*eA*eA) [compound 328112]")
"79 percentage of untreated control (UTC)"

---

System: BJ cells
method-summary: Cell cycle assay in BJ cells
Assay type: cell-based, human
experimental-setup: 200 nM, 48 hours, relative to untreated control
In the oligonucleotide strings, read from the 5' end, every base follows the letter of its sugar. An asterisk marks phosphorothioate; unmarked linkages are phosphodiester. Other units and linkages are bracketed, terminal groups are in braces. A string of capitals states the bases alone. e = 2'-O-(2-methoxyethyl) (MOE); [5mC] = 5-methylcytosine; d = 2'-deoxy (DNA)
observation-type: % cells in cell cycle phase subG1 (%)

>>> recorded_value("327902 (antisense eG*eG*e[5mC]*eT*eG*eT*e[5mC]*eA*eA*eT*eT*e[5mC]*eA*eT*eA*eG*eG*eT*e[5mC]*eA*eG) [compound 327902]")
91
>>> recorded_value("25691 (antisense eG*e[5mC]*e[5mC]*eA*eA*dG*dG*d[5mC]*dG*dT*dG*dA*d[5mC]*dA*dT*eG*eA*eT*eA*eT) [compound 25691]")
183
>>> recorded_value("328403 (antisense eA*eG*eG*e[5mC]*e[5mC]*dT*dA*dT*dT*d[5mC]*d[5mC]*dT*dG*dT*dA*eG*e[5mC]*eA*eA*eA) [compound 328403]")
81
>>> recorded_value("328759 (antisense eG*eA*eG*eG*eG*dA*dT*dT*dG*dT*dA*dT*dG*dA*dA*e[5mC]*eA*eT*e[5mC]*eT) [compound 328759]")
164
>>> recorded_value("327905 (antisense e[5mC]*eA*eG*eA*e[5mC]*eT*e[5mC]*e[5mC]*eG*eG*eT*eG*eG*eA*eA*eT*eG*eA*eA*eG*eG*eA) [compound 327905]")
105
>>> recorded_value("328744 (antisense e[5mC]*eG*eG*eA*eT*d[5mC]*d[5mC]*dT*dG*dT*dT*dA*d[5mC]*d[5mC]*dT*e[5mC]*eA*e[5mC]*e[5mC]*eA) [compound 328744]")
125
>>> recorded_value("345395 (AAGGGATTCCTGGGAAAACTGGAC; sugars from the 5' end e5 d10 e9, all phosphorothioate, methylation of C not given here) [compound 345395]")
132

---

Attribute: % cells in cell cycle phase G2/M
System: HeLa cells
method-summary: Cell cycle assay in HeLa cells
Format: cell-based, human
experimental-setup: HeLa cells, 150 nM oligomeric compound, 24 hours, relative to untreated control (UTC = 100)
In the oligonucleotide strings, read from the 5' end, every base follows the letter of its sugar. An asterisk marks phosphorothioate; unmarked linkages are phosphodiester. Other units and linkages are bracketed, terminal groups are in braces. A string of capitals states the bases alone. e = 2'-O-(2-methoxyethyl) (MOE); [5mC] = 5-methylcytosine; d = 2'-deoxy (DNA)
observation-type: % cells in cell cycle phase G2/M

>>> recorded_value("338690 (antisense TAGACAAAAACAGACTCTGA; all 2'-MOE, all phosphorothioate, methylation of C not given here) [compound 338690]")
"123%"
>>> recorded_value("345373 (AGCCTATCCTGGATTACTTGAA; sugars from the 5' end e5 d10 e7, all phosphorothioate, methylation of C not given here) [compound 345373]")
"176%"
>>> recorded_value("328396 (antisense e[5mC]*eT*eG*eG*eT*dT*dG*dG*dG*dT*dA*dT*dG*dA*dG*eA*e[5mC]*eA*eG*eA) [compound 328396]")
"139%"
>>> recorded_value("327949 (antisense e[5mC]*eA*e[5mC]*eA*eA*eA*eT*eT*e[5mC]*eG*eG*eA*eT*e[5mC]*eT*eA*e[5mC]*eA*eG*eG*eG*eT*eA) [compound 327949]")
"172%"
>>> recorded_value("328342 (e[5mC]*eA*eA*eT*eT*dG*d[5mC]*dG*d[5mC]*dT*dA*d[5mC]*dA*dG*dA*eA*e[5mC]*eT*eG*eT) [compound 328342]")
"238%"
>>> recorded_value("327957 (antisense e[5mC]*eA*e[5mC]*eA*eA*eG*eT*eT*e[5mC]*eG*eG*eA*eT*e[5mC]*eT*eA*e[5mC]*eG*eG*eG*eT*eT) [compound 327957]")
"145%"
>>> recorded_value("327946 (antisense eA*eG*eG*e[5mC]*eG*eA*eA*eG*eG*eA*eT*eG*eA*e[5mC]*eA*eA*eA*eG*eG*eG*eA*eA) [compound 327946]")
"156%"
>>> recorded_value("345395 (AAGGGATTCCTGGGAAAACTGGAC; sugars from the 5' end e5 d10 e9, all phosphorothioate, methylation of C not given here) [compound 345395]")
"222%"
>>> recorded_value("341788 (antisense AGCCAAGCTCAGACGGATCCGA; all 2'-MOE, all phosphorothioate, methylation of C not given here) [compound 341788]")
"140%"
>>> recorded_value("340365 (antisense TACTTTATATAGAACACAAG; sugars from the 5' end e5 d10 e5, all phosphorothioate, methylation of C not given here) [compound 340365]")
"114%"
>>> recorded_value("338809 (antisense CTGCTCCAGAGCCCGAGTCG; all 2'-MOE, all phosphorothioate, methylation of C not given here) [compound 338809]")
"69%"
